system: AML patient cells (bulk, CD34+, CD34+CD38−, CD34+CD38+); assay: Apoptosis; assay type: cell-based; conditions: Homo sapiens, 24 h, read-out: EC50 - Annexin V +, 24 h, Alone, CD34+
pEC50: −log10 of the molar value.

{"molecule": "CC(C)[C@]12O[C@H]1[C@@H]1O[C@]13[C@]1(O[C@H]1C[C@H]1C4=C(CC[C@@]13C)C(=O)OC4)[C@@H]2O [Triptolide]", "pEC50": 8.67}

###

experiment: in vivo; settings: male, Sprague Dawley, rat, iv, 0.3 mg/kg/day, T1/2,e

{"compound": "CC(C)[C@]12O[C@H]1[C@@H]1O[C@]13[C@]1(O[C@H]1C[C@H]1C4=C(CC[C@@]13C)C(=O)OC4)[C@@H]2O [Triptolide]", "half-life (min)": 10.8}
